For each entry below, report its log10 IC50 value.
molecular target: Phosphatidylinositol 4,5-bisphosphate 3-kinase catalytic subunit alpha isoform (Homo sapiens, UniProt P42336); assay: Inhibition of PI3K-alpha (unknown origin) by KinaseGlo assay
Sequence (P42336 whole entry, canonical isoform): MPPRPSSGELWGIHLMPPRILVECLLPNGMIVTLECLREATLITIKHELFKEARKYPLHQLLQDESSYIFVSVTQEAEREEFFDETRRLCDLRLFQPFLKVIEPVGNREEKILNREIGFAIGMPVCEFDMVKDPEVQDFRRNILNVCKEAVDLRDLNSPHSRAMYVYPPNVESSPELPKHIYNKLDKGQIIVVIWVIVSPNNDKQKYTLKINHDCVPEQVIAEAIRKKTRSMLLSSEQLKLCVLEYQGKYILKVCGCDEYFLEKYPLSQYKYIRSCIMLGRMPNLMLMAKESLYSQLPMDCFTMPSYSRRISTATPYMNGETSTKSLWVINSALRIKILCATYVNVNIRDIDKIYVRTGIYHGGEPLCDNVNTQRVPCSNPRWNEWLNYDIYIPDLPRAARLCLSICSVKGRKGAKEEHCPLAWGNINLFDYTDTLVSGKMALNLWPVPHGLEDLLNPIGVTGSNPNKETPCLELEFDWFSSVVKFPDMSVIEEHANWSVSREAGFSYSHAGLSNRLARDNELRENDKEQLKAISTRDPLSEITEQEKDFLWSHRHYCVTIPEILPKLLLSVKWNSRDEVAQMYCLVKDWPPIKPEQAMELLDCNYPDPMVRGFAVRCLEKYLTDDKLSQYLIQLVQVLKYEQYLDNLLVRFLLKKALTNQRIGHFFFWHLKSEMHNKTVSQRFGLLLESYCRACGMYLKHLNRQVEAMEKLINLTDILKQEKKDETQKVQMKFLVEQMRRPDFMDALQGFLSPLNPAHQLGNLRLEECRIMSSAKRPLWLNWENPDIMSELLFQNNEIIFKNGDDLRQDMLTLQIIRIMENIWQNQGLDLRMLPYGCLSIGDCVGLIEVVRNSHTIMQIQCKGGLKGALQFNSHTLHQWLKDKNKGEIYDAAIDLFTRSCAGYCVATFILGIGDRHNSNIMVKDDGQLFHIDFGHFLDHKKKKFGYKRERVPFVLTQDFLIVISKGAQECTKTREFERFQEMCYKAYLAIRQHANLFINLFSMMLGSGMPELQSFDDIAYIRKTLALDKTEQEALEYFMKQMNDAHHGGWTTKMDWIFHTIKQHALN
The figures below represent log10 of IC50, where IC50 is stated in nM.

Known results for molecules:
CCC(=O)N1CC[C@H](Oc2ccnc3ccc(-c4ccc(OC)nc4)nc23)C1: 2.63
COc1ccc(-c2ccc3ncnc(O[C@H]4CCN(C)C4)c3c2)cc1OC: 2.95
CCC(=O)N1CC[C@H](Oc2ncnc3ccc(-c4cnc(OC)c(C#N)c4)cc23)C1: 2.59
COc1ccc(-c2ccc3ncnc(O[C@H]4CCN(C(C)=O)C4)c3c2)cc1OC: 2.10
CCC(=O)N1CC[C@H](Oc2ncnc3ccc(-c4ccc(OC)nc4)cc23)C1: 2.34
COc1ccc(-c2ccc3ncnc(O[C@@H]4CCN(C)C4)c3c2)cc1OC: 2.93
CCC(=O)N1CC[C@H](Oc2cnc3ccc(-c4ccc(OC)c(OC)c4)cc3n2)C1: 3.51
CCC(=O)N1CC[C@@H](Oc2cnc3ccc(-c4ccc(OC)c(OC)c4)cc3n2)C1: 2.69
CCC(=O)N1CC[C@H](Oc2cnnc3ccc(-c4ccc(OC)nc4)cc23)C1: 3.71

Proceed to the following item.
### Prompt Value lookup for log10 IC50; key = `COc1ccc(-c2ccc3ncnc(O[C@@H]4CCN(C(C)=O)C4)c3c2)cc1OC`
### Response 2.83
